Tested on: phosphorylation of pRb at the Ser780 site in JeKo-1 mantle cell lymphoma cells
Assay: CDK4 cellular assay: ELISA of pRb phosphorylation at Ser780 in JeKo-1 cells
Format: cell-based
Conditions: Homo sapiens, JeKo-1, JeKo-1 cells, p-pRb % inhibition adjusted with total pRb levels; read-out: Normalized cellular ppRb inhibition IC50
pIC50: −log10 of the molar value.
Would you mind labelling by pIC50? At or over 7 is Y, under is N.

Compound: CN(C)C(=O)c1cc2cnc(Nc3ccc(C(=O)N4CC5CCC(C4)N5)cn3)nc2n1C1CCCCCC1 [Example 4]
Label: Y

Q) Hi team, for CN(C)C(=O)c1cc2cnc(Nc3ccc(C(=O)N4CCN5CCCC5C4)cn3)nc2n1C1CCCC1 (centres unmarked) [Example 20] , is the recorded pIC50 at or above 7?
A) N

Q) Hi team, for CN(C)C(=O)c1cc2cnc(Nc3ccc(C(=O)N4CC5CCC(C4)N5)cn3)nc2n1[C@@H]1C[C@H]2CC[C@@H]1C2 (stereo in doubt) [Example 36] , is the recorded pIC50 at or above 7?
A) Y

---

Target: CDK4/cyclin D1 (Homo sapiens (Human))
Sequence (P11802 whole entry): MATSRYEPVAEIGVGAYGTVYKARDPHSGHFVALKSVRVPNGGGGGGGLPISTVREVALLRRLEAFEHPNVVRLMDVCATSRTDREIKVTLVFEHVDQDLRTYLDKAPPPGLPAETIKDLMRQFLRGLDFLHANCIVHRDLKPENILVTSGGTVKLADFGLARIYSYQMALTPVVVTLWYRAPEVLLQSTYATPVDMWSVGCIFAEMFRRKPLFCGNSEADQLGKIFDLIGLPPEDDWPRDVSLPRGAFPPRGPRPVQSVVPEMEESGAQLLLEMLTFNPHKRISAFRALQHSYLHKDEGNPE
Sequence (P24385 whole entry partner): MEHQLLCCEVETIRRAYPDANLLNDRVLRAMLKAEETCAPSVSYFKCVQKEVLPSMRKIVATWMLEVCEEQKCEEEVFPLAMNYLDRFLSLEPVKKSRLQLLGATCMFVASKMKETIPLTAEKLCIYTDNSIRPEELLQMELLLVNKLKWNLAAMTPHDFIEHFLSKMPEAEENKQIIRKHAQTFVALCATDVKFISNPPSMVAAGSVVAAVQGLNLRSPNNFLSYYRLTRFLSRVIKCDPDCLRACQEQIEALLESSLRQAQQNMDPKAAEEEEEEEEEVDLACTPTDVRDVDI
Assay: CDK4/cyclin D1 enzymatic activity assay (TR-FRET, phosphorylation of pRb at Ser780)
Type: biochemical
Details: 0.3 nM CDK4/cyclin D1, 150 nM biotin-pRb (773-924), 3 μM ATP, 60 min at 22° C.; read-out: Biochemical CDK4 enzyme IC50
Parameter IC50: see the listing below.
State the answer as a number, implicitly in nM.

Some solved cases for reference:
Molecule: CN(C)C(=O)c1cc2cnc(Nc3ccc(N4CC5(CCNCC5)OC4=O)cn3)nc2n1C1CCCC1 [Example 119]
IC50 (nM): 12

Molecule: CN(C)C(=O)c1cc2cnc(Nc3ccc(C(=O)N4CC5CC4CN5)cn3)nc2n1C1CCCCC1 (stereo not shown) [Example 67]
IC50 (nM): 3

Switching to the query record.
Q) # get_value(readout='IC50', item= CN(C)C(=O)c1cc2cnc(Nc3ccc(C(=O)N4CC5CCC(C4)C5N(C)C)cn3)nc2n1C1CCCC1 (stereo not shown) [Example 34] )
A) 22

---

Parameter IC50: see the listing below.
Test system: phosphorylation of pRb at the Ser780 site in JeKo-1 mantle cell lymphoma cells
Assay: CDK4 cellular assay: ELISA of pRb phosphorylation at Ser780 in JeKo-1 cells
Assay type: cell-based
Conditions: Homo sapiens, JeKo-1, JeKo-1 cells, p-pRb % inhibition adjusted with total pRb levels; read-out: Normalized cellular ppRb inhibition IC50
Method: Cell-based assay measuring phosphorylation levels of pRb at the Ser780 site using an enzyme-linked immunosorbent assay (ELISA) method (Table 6). […] Plates were incubated overnight at 4° C. with rocking. […] After incubation, 50 μL 2 M sulfuric acid were added to plates to top the reaction, and absorbance was determined on a SpectraMax (Molecular Devices, Sunnydale, Calif.) within 15 minutes at 450 nm. […]
State the answer as a number, implicitly in nM.

Some solved cases for reference:
Molecule: CN(C)C(=O)c1cc2cnc(Nc3ccc(C(=O)N4CCC5COCC(C4)N5)cn3)nc2n1C1CCCC1 (stereo not shown)
Experimental Result: 525
--
Molecule: CN(C)C(=O)c1cc2cnc(Nc3ccc(C(=O)N4CC5CC[C@@H](C4)N5)cn3)nc2n1[C@H]1C[C@@H]2CC[C@H]1C2
Experimental Result: 225

Switching to the query record.
Q) # get_value(readout='IC50', item= CN(C)C(=O)c1cc2cnc(Nc3ccc(N4CC5CCC(CC4=O)N5)cn3)nc2n1-c1ccccc1 (stereo not shown) )
A) 140
